target: T1, AS519 VHH (camel-derived); assay: indirect ELISA, VHH coated
T1 construct: One of the 10 different camel-derived nanobodies; not shown: His tag (VHH-His)
T1 sequence (VHH, as listed by the source): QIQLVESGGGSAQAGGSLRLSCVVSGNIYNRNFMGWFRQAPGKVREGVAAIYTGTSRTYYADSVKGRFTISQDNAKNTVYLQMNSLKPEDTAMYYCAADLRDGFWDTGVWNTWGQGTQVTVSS
Source text: […]

[
  {
    "binder": "R166.E5 (antibody, V domains shown, Rabbit monoclonal; also called clone R166.E5) VH: QSLEESGGRLVTPGTPLTLTCTASGFSLSGYYMIWVRQAPGKGLEYIGIVTSSGSTHYASWANGRFAISKTSSTTVDLKMPSLTTEDTATYFCAREGGWAFDLWGQGTLVTVSS VL: QVLTQTPFSVSTAVGGTVTINCQSSESVANSNWLSWYQQKPGQPPKLLIYWASKLASGVPSRFSGSGSGTQFTLTISGVQCADAATYYCQGGYTSDRRAFGGGTEVVVKG",
    "binding result": "binds"
  },
  {
    "binder": "R166.G3 (antibody, V domains shown, Rabbit monoclonal; also called clone R166.G3) VH: QSVEESGGRLVTPGTPLTLTCTVSGIDLSRYAMGWVRQAPGKGLEYIGIIGYGGNTNYANWAKGRFTISKTSSTTVDLKMTSPTTEDTATYFCARDNKSGGNNGYPYYGLDLWGPGTLVTVSS VL: AYDMTQTPASVEVPVGGTVTINCQASQSISSHLAWYQQKRGQPPKVLIYYASTLASGVSSRFKGSGSGTEYTLTISGVECADAATYFCHQSYSGSDVDNTFGGGTEVVVRG",
    "binding result": "binds"
  },
  {
    "binder": "R166.H9 (antibody, V domains shown, Rabbit monoclonal; also called clone R166.H9) VH: QSLEESGGRLVTPGTPLTLTCTASGFSLNNYNMIWVRQAPGEGLEWIGMIGDGDDAAWYASWAKGRFTISKTSTTVDLEVTSLTTEDTAIYFCARYLSFTRLDLWGQGTLVTVSS VL: AVLTQTPSPVSAAVGGTVTINCQSSQSVYHNNWLAWYQQKPGQPPKLLIYGAATLASGVPSRFKGSGSGTQFTFTITDVQCDDVGTYYCAGVYNDDSENAFGGGTEVVVKG",
    "binding result": "binds"
  }
]
